Value source: the supplement of paper PMC3545927

furin cleavage Z-score values, listed per item
# target.or.system: furin, P09958;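 further: purified furin at 1:10 enzyme:substrate in 50 mM HEPES pH 7.5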
# Sequence (P09958 whole entry): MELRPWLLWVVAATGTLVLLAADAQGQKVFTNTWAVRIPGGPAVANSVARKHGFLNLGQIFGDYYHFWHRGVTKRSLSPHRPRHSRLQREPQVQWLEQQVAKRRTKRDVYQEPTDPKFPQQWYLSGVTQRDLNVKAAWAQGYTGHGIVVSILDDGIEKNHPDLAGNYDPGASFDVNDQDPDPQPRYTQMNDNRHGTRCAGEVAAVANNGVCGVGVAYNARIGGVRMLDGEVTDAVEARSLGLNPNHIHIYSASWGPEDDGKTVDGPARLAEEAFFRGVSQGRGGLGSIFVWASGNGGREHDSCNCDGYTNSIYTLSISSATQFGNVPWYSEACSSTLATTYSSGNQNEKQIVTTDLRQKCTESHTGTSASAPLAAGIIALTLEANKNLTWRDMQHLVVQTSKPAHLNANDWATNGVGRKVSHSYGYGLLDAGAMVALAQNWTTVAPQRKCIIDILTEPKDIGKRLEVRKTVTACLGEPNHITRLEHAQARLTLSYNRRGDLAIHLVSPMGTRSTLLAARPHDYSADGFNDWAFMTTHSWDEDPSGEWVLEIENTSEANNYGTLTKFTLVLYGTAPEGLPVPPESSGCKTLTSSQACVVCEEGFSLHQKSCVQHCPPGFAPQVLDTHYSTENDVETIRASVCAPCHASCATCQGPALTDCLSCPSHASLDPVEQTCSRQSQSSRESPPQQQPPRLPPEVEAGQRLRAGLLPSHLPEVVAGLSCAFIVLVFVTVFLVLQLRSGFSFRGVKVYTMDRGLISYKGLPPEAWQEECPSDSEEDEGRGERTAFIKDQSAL
# protocol.text: furin cleavage Z-score vs untreated control; higher = more cleavage, active = 3.5 or more, inactive = 1 or less, 8 variable residues between constant flanks
# recorded.conditions: 15 min
Some of the results follow. The hit rate among all sequences tested is not known here.
Note: the reply should be a number with no unit written.

ordered.residues	furin cleavage Z-score
CARRTRSFSWAGNASASA [FS-1790]	1.95
CAVYHGAGTRAGNASASA [HC701]	-0.779
CARRRRQEEKAGNASASA [FS-2794]	1.69
CAGMVSKGWRAGNASASA [HC669]	0.139
CAFEMEECSQAGNASASA [HC1787]	-1.03

For this sequence ( CAVREVPCHRAGNASASA [HC2430] ), measured furin cleavage Z-score is -1.03

For this sequence ( CAKARRFVEQAGNASASA [FS-2121] ), measured furin cleavage Z-score is 0.447

For this sequence ( CASTPCSAFLAGNASASA [HC2547] ), measured furin cleavage Z-score is -0.0879
